Ref: patent US10376499B2

Exercise: for every item that follows, state its recorded MIC.
# System: A. baumannii
# PROTOCOL_NOTES: MIC by broth microdilution (CLSI), panel of 60 A. baumannii clinical isolates (Example 1)
# CONDITION_NOTES: Acinetobacter baumannii, strain ARC2778; OXA-40; TEM-1; OXA-65
Numbers only, in µg/mL.

1. CC1(C)[C@H](C(=O)O)N2C(=O)C[C@H]2S1(=O)=O [Sulbactam] | 16

Next:
Need MIC, item C[C@H]1COc2c(N3CCN(C)CC3)c(F)cc3c(=O)c(C(=O)O)cn1c23 [LEVO, levofloxacin]
32

====

Exercise: for every item that follows, state its recorded MIC.
# Tested on: A. baumannii
# PROTOCOL_NOTES: MIC by broth microdilution (CLSI), panel of 60 A. baumannii clinical isolates (Example 1)
# CONDITION_NOTES: Acinetobacter baumannii, strain ARC3486; OXA-72; OXA-66; TEM-1
Answers are plain numbers, in µg/mL.

1) C[C@H]1COc2c(N3CCN(C)CC3)c(F)cc3c(=O)c(C(=O)O)cn1c23 | 8

Next:
Need MIC, item CC1(C)[C@H](C(=O)O)N2C(=O)C[C@H]2S1(=O)=O
32

====

# System: A. baumannii
# PROTOCOL_NOTES: MIC by broth microdilution (CLSI), panel of 60 A. baumannii clinical isolates (Example 1)
# CONDITION_NOTES: Acinetobacter baumannii, strain ARC2780 (A. baumannii/calcoaceticus complex); OXA*; OXA-2; IMP-1
Exercise: for every item that follows, state its recorded MIC.
Numbers only, in µg/mL.

Answered examples (3):
1. CC1(C)[C@H](C(=O)O)N2C(=O)C[C@H]2S1(=O)=O [Sulbactam] | 4
2. C[C@@H](O)[C@H]1C(=O)N2C(C(=O)O)=C(S[C@@H]3CN[C@H](C(=O)N(C)C)C3)[C@H](C)[C@H]12 [Meropenem, meropenem] | 32
3. C[C@H]1COc2c(N3CCN(C)CC3)c(F)cc3c(=O)c(C(=O)O)cn1c23 [LEVO, levofloxacin] | 4

Next:
Need MIC, item CN(C)[C@@H]1C(O)=C(C(N)=O)C(=O)[C@@]2(O)C(O)=C3C(=O)c4c(O)cccc4[C@@](C)(O)[C@H]3C[C@@H]12 [TET, tetracycline]
2

====

# Tested on: A. baumannii
# PROTOCOL_NOTES: MIC by broth microdilution (CLSI), panel of 60 A. baumannii clinical isolates (Example 1)
# CONDITION_NOTES: Acinetobacter baumannii, strain ARC5088; OXA-20; OXA-58; OXA-66
OBSERVABLE: MIC

Answered examples (3):
1) C[C@H]1COc2c(N3CCN(C)CC3)c(F)cc3c(=O)c(C(=O)O)cn1c23 [LEVO, levofloxacin] | 8 µg/mL
2) C[C@@H](O)[C@H]1C(=O)N2C(C(=O)O)=C(S[C@@H]3CN[C@H](C(=O)N(C)C)C3)[C@H](C)[C@H]12 [Meropenem, meropenem] | 8 µg/mL
3) CC1(C)[C@H](C(=O)O)N2C(=O)C[C@H]2S1(=O)=O [Sulbactam] | 16 µg/mL

Next:
Need MIC, item CN(C)[C@@H]1C(O)=C(C(N)=O)C(=O)[C@@]2(O)C(O)=C3C(=O)c4c(O)cccc4[C@@](C)(O)[C@H]3C[C@@H]12 [TET, tetracycline]
16 µg/mL

====

# Tested on: A. baumannii
# PROTOCOL_NOTES: MIC by broth microdilution (CLSI), panel of 60 A. baumannii clinical isolates (Example 1)
# CONDITION_NOTES: Acinetobacter baumannii, strain ARC2462; TEM-1; OXA-66
Exercise: for every item that follows, state its recorded MIC.

Quick batch: MIC for everything below.
1. CN(C)[C@@H]1C(O)=C(C(N)=O)C(=O)[C@@]2(O)C(O)=C3C(=O)c4c(O)cccc4[C@@](C)(O)[C@H]3C[C@@H]12
2. CC1(C)[C@H](C(=O)O)N2C(=O)C[C@H]2S1(=O)=O

["> 32 µg/mL", "16 µg/mL"]

Quick batch: MIC for everything below.
1. C[C@@H](O)[C@H]1C(=O)N2C(C(=O)O)=C(S[C@@H]3CN[C@H](C(=O)N(C)C)C3)[C@H](C)[C@H]12
2. C[C@H]1COc2c(N3CCN(C)CC3)c(F)cc3c(=O)c(C(=O)O)cn1c23

["4 µg/mL", "16 µg/mL"]

====

Exercise: for every item that follows, state its recorded MIC.
# System: A. baumannii
# PROTOCOL_NOTES: MIC by broth microdilution (CLSI), panel of 60 A. baumannii clinical isolates (Example 1)
# CONDITION_NOTES: Acinetobacter baumannii, strain ARC2635; OXA-65; OXA-40; TEM-1
One number for each entry, in µg/mL.

1. CC1(C)[C@H](C(=O)O)N2C(=O)C[C@H]2S1(=O)=O | 32

Quick batch: MIC for everything below.
1. CN(C)[C@@H]1C(O)=C(C(N)=O)C(=O)[C@@]2(O)C(O)=C3C(=O)c4c(O)cccc4[C@@](C)(O)[C@H]3C[C@@H]12
2. C[C@H]1COc2c(N3CCN(C)CC3)c(F)cc3c(=O)c(C(=O)O)cn1c23

1: 8; 2: 16

====

Exercise: for every item that follows, state its recorded MIC.
# System: A. baumannii
# PROTOCOL_NOTES: MIC by broth microdilution (CLSI), panel of 60 A. baumannii clinical isolates (Example 1)
# CONDITION_NOTES: Acinetobacter baumannii, strain ARC5086; OXA*; TEM-1; OXA-72; OXA-66
Give bare numbers, in mg/L.

1) CC1(C)[C@H](C(=O)O)N2C(=O)C[C@H]2S1(=O)=O | 32

Need MIC, item C[C@H]1COc2c(N3CCN(C)CC3)c(F)cc3c(=O)c(C(=O)O)cn1c23
16
